Catalogue of binders with associated FACS signal
Molecular target: human CLDN6 fused to GFP, expressed on engineered HEK293T cells (human) (UniProt P56747)
Experiment: FACS, 293T clone with human CLDN6, 1.5 ug Ab
Just the number.

AB3-chim (antibody, V domains shown) VH: EVKLEESGGGLVQPGGSMKLSCVASGFTFSNYWMNWVRQSPEKGLEWVAQIRLKSDNYATHYAESVKGRFTISRDDSKRSVYLQMNNLRAEDTGTYYCNDGPPSGCWGQGTTLIVSS VL: DIQMTQSPASLSASVGETVTITCRISENIYSYLAWYQQKQGKSPQLLVYNAKILVEGVPSRFSGSGSGTQFSLKINSLQPEDFGNYYCQHHYTVPWTFGGGTKLEIK : 459000
AB11-chim (antibody, V domains shown) VH: DVQLVESGGGLVQPRGSRKLSCAASGFTFSSFGMHWVRQAPEKGLEWVAYISSDSRTIYYADTVKGRFTISRDNPTNTLFLQMTSLRSEDTAMYYCARDYGRTYEAYWGQGTLVTVSA VL: DIVLTQSPASLAVSLGQRATISCRASKSVSTSGYSYIHWYQQKPGQPPKLLIYLASNLESGVPARFSGSGSGTDFTLNIHPVEEEDAATYYCQHSRELPLTFGAGTKLELK : 3490

Now let's try a different one.
Problem: Indicate the recorded FACS signal value for this binder: AB11-2 (antibody, V domains shown) VH: EVQLVESGGGLVQPGGSLRLSCAASGFTFSSFGMHWVRQAPGKGLEWVAYISSDSRTIYYADSVKGRFTISRDNAKNSLYLQMNSLRAEDTAVYYCARDYGRTYEAYWGQGTLVTVSS VL: DIVMTQSPDSLAVSLGERATINCRASKSVSTSGYSYIHWYQQKPGQPPKLLIYLASNLESGVPDRFSGSGSGTDFTLTISSLQAEDVAVYYCQHSRELPLTFGQGTKLEIK
Result: 2560
